System: NCI-H1395
Assay: relative viability (nuclei count vs DMSO), 5 days (fraction); higher = more cells survive
Assay Setup: first compound 0.05 µM
The compounds listed here are annotated with their relative viability.
Observation Type: relative viability

>>> meas_value("COc1cc2nccc(Oc3ccc(NC(=O)Nc4cc(C)on4)c(Cl)c3)c2cc1OC [Tivozanib] + Cc1nc(Nc2ncc(C(=O)Nc3c(C)cccc3Cl)s2)cc(N2CCN(CCO)CC2)n1 [Dasatinib] (partner 0.075 µM)")
0.404
>>> meas_value("Nc1ccn([C@@H]2O[C@H](CO)[C@@H](O)[C@@H]2O)c(=O)n1 [Cytarabine] + NC(=O)Nc1cc(-c2cccc(F)c2)sc1C(=O)N[C@H]1CCCNC1 [AZD7762] (partner 0.2 µM)")
0.331
>>> meas_value("COc1cc2nccc(Oc3ccc(NC(=O)Nc4cc(C)on4)c(Cl)c3)c2cc1OC [Tivozanib] + NC(=O)Nc1cc(-c2cccc(F)c2)sc1C(=O)N[C@H]1CCCNC1 [AZD7762] (partner 0.2 µM)")
0.402
>>> meas_value("Nc1ccn([C@@H]2O[C@H](CO)[C@@H](O)[C@@H]2O)c(=O)n1 [Cytarabine] + CCNC(=O)c1noc(-c2cc(C(C)C)c(O)cc2O)c1-c1ccc(CN2CCOCC2)cc1 [Luminespib] (partner 0.01 µM)")
0.437

====

Test system: NCI-H661
Assay: relative viability (nuclei count vs DMSO), 5 days (fraction); higher = more cells survive
Assay Setup: first compound 0.05 µM
Observation Type: relative viability

>>> meas_value("COc1cc2nccc(Oc3ccc(NC(=O)Nc4cc(C)on4)c(Cl)c3)c2cc1OC [Tivozanib] + CC(=O)c1c(C)c2cnc(Nc3ccc(N4CCNCC4)cn3)nc2n(C2CCCC2)c1=O [Palbociclib] (partner 0.5 µM)")
0.422
>>> meas_value("COc1cc2nccc(Oc3ccc(NC(=O)Nc4cc(C)on4)c(Cl)c3)c2cc1OC [Tivozanib] + Nc1ncn([C@H]2C[C@H](O)[C@@H](CO)O2)c(=O)n1 [Decitabine] (partner 2 µM)")
0.592
>>> meas_value("COc1cc2nccc(Oc3ccc(NC(=O)Nc4cc(C)on4)c(Cl)c3)c2cc1OC [Tivozanib] + COc1cccc2cc(-c3nc([C@H]4CC[C@H](C(=O)O)CC4)n4ncnc(N)c34)[nH]c12 [OSI-027] (partner 0.5 µM)")
0.724
>>> meas_value("Nc1ccn([C@@H]2O[C@H](CO)[C@@H](O)[C@@H]2O)c(=O)n1 [Cytarabine] + Nc1nc2[nH]cc(CCc3ccc(C(=O)N[C@@H](CCC(=O)O)C(=O)O)cc3)c2c(=O)[nH]1 [Pemetrexed] (partner 0.2 µM)")
0.851

====

Test system: SW 1573
Assay: relative viability (nuclei count vs DMSO), 5 days (fraction); higher = more cells survive
Assay Setup: first compound 0.01581 µM
// reported relative viability per item
Observation Type: relative viability

>>> meas_value("COc1cc2nccc(Oc3ccc(NC(=O)Nc4cc(C)on4)c(Cl)c3)c2cc1OC [Tivozanib] + N=C(N)NC(=N)NCCc1ccccc1 [Phenformin] (partner 250 µM)")
0.362
>>> meas_value("COc1cc2nccc(Oc3ccc(NC(=O)Nc4cc(C)on4)c(Cl)c3)c2cc1OC [Tivozanib] + C[C@]1(O)C[C@@H](c2nc(-c3ccc4ccc(-c5ccccc5)nc4c3)c3c(N)nccn32)C1 [Linsitinib] (partner 1 µM)")
0.826
>>> meas_value("COc1cc2nccc(Oc3ccc(NC(=O)Nc4cc(C)on4)c(Cl)c3)c2cc1OC [Tivozanib] + Cc1nc(NC(=O)N2CCC[C@H]2C(N)=O)sc1-c1ccnc(C(C)(C)C(F)(F)F)c1 [Alpelisib] (partner 2 µM)")
0.825
>>> meas_value("Nc1ccn([C@@H]2O[C@H](CO)[C@@H](O)[C@@H]2O)c(=O)n1 [Cytarabine] + Cc1nc(Nc2ncc(C(=O)Nc3c(C)cccc3Cl)s2)cc(N2CCN(CCO)CC2)n1 [Dasatinib] (partner 0.075 µM)")
0.333
>>> meas_value("COc1cc2nccc(Oc3ccc(NC(=O)Nc4cc(C)on4)c(Cl)c3)c2cc1OC [Tivozanib] + CC1(C)CCC(c2ccc(Cl)cc2)=C(CN2CCN(c3ccc(C(=O)NS(=O)(=O)c4ccc(N[C@H](CCN5CCOCC5)CSc5ccccc5)c(S(=O)(=O)C(F)(F)F)c4)cc3)CC2)C1 [Navitoclax] (partner 0.5 µM)")
0.911
>>> meas_value("COc1cc2nccc(Oc3ccc(NC(=O)Nc4cc(C)on4)c(Cl)c3)c2cc1OC [Tivozanib] + O=C(c1cc(Cc2n[nH]c(=O)c3ccccc23)ccc1F)N1CCN(C(=O)C2CC2)CC1 [Olaparib] (partner 8 µM)")
0.416
>>> meas_value("Nc1ccn([C@@H]2O[C@H](CO)[C@@H](O)[C@@H]2O)c(=O)n1 [Cytarabine] + CC(C)C[C@H](NC(=O)[C@H](Cc1ccccc1)NC(=O)c1cnccn1)B(O)O [Bortezomib] (partner 0.002 µM)")
0.847
>>> meas_value("COc1cc2nccc(Oc3ccc(NC(=O)Nc4cc(C)on4)c(Cl)c3)c2cc1OC [Tivozanib] + CS(=O)(=O)N1CCN(Cc2cc3nc(-c4cccc5[nH]ncc45)nc(N4CCOCC4)c3s2)CC1 [Pictilisib] (partner 1 µM)")
0.479

====

System: SW 1573
Assay: relative viability (nuclei count vs DMSO), 5 days (fraction); higher = more cells survive
Assay Setup: first compound 0.5 µM
Examples of compounds with documented relative viability follow.
Observation Type: relative viability

>>> meas_value("Nc1ccn([C@@H]2O[C@H](CO)[C@@H](O)[C@@H]2O)c(=O)n1 [Cytarabine] + O=C(CCCCCCC(=O)Nc1ccccc1)NO [Vorinostat] (partner 1 µM)")
0.15
>>> meas_value("Nc1ccn([C@@H]2O[C@H](CO)[C@@H](O)[C@@H]2O)c(=O)n1 [Cytarabine] + COc1cc2c(Oc3ccc(NC(=O)C4(C(=O)Nc5ccc(F)cc5)CC4)cc3F)ccnc2cc1OCCCN1CCOCC1 [Foretinib] (partner 0.25 µM)")
0.202
>>> meas_value("Nc1ccn([C@@H]2O[C@H](CO)[C@@H](O)[C@@H]2O)c(=O)n1 [Cytarabine] + CC(=O)c1c(C)c2cnc(Nc3ccc(N4CCNCC4)cn3)nc2n(C2CCCC2)c1=O [Palbociclib] (partner 0.5 µM)")
0.117
>>> meas_value("Nc1ccn([C@@H]2O[C@H](CO)[C@@H](O)[C@@H]2O)c(=O)n1 [Cytarabine] + CS(=O)(=O)N1CCN(Cc2cc3nc(-c4cccc5[nH]ncc45)nc(N4CCOCC4)c3s2)CC1 [Pictilisib] (partner 1 µM)")
0.106
>>> meas_value("COc1cc2nccc(Oc3ccc(NC(=O)Nc4cc(C)on4)c(Cl)c3)c2cc1OC [Tivozanib] + Cc1nc(NC(=O)N2CCC[C@H]2C(N)=O)sc1-c1ccnc(C(C)(C)C(F)(F)F)c1 [Alpelisib] (partner 2 µM)")
0.776
>>> meas_value("Nc1ccn([C@@H]2O[C@H](CO)[C@@H](O)[C@@H]2O)c(=O)n1 [Cytarabine] + CS(=O)(=O)CCNCc1ccc(-c2ccc3ncnc(Nc4ccc(OCc5cccc(F)c5)c(Cl)c4)c3c2)o1 [Lapatinib] (partner 2 µM)")
0.329

====

Recorded measurements of relative viability, one per entry
Test system: NCI-H2087
Assay: relative viability (nuclei count vs DMSO), 5 days (fraction); higher = more cells survive
Assay Setup: first compound 0.005 µM
Observation Type: relative viability

>>> meas_value("COc1cc2nccc(Oc3ccc(NC(=O)Nc4cc(C)on4)c(Cl)c3)c2cc1OC [Tivozanib] + Cc1nc(Nc2ncc(C(=O)Nc3c(C)cccc3Cl)s2)cc(N2CCN(CCO)CC2)n1 [Dasatinib] (partner 0.075 µM)")
0.6
>>> meas_value("Nc1ccn([C@@H]2O[C@H](CO)[C@@H](O)[C@@H]2O)c(=O)n1 [Cytarabine] + CS(=O)(=O)N1CCN(Cc2cc3nc(-c4cccc5[nH]ncc45)nc(N4CCOCC4)c3s2)CC1 [Pictilisib] (partner 1 µM)")
0.804
>>> meas_value("Nc1ccn([C@@H]2O[C@H](CO)[C@@H](O)[C@@H]2O)c(=O)n1 [Cytarabine] + CC(=O)Nc1cccc(-n2c(=O)n(C3CC3)c(=O)c3c(Nc4ccc(I)cc4F)n(C)c(=O)c(C)c32)c1 [Trametinib] (partner 0.02 µM)")
0.187
>>> meas_value("COc1cc2nccc(Oc3ccc(NC(=O)Nc4cc(C)on4)c(Cl)c3)c2cc1OC [Tivozanib] + COc1cccc2cc(-c3nc([C@H]4CC[C@H](C(=O)O)CC4)n4ncnc(N)c34)[nH]c12 [OSI-027] (partner 0.5 µM)")
0.461

====

relative viability by entry:
Tested on: SK-LU-1
Assay: relative viability (nuclei count vs DMSO), 5 days (fraction); higher = more cells survive
Assay Setup: first compound 0.005 µM
Observation Type: relative viability

>>> meas_value("Nc1ccn([C@@H]2O[C@H](CO)[C@@H](O)[C@@H]2O)c(=O)n1 [Cytarabine] + N=C(N)NC(=N)NCCc1ccccc1 [Phenformin] (partner 250 µM)")
0.353
>>> meas_value("COc1cc2nccc(Oc3ccc(NC(=O)Nc4cc(C)on4)c(Cl)c3)c2cc1OC [Tivozanib] + N=C(N)NC(=N)NCCc1ccccc1 [Phenformin] (partner 250 µM)")
0.58
>>> meas_value("COc1cc2nccc(Oc3ccc(NC(=O)Nc4cc(C)on4)c(Cl)c3)c2cc1OC [Tivozanib] + Nc1nc2[nH]cc(CCc3ccc(C(=O)N[C@@H](CCC(=O)O)C(=O)O)cc3)c2c(=O)[nH]1 [Pemetrexed] (partner 0.2 µM)")
1
